Source listed as ChEMBL document CHEMBL2390820.

experiment: Cytotoxicity against MDBK cells assessed as growth inhibition after 3 days by MTS assay; type: cell-based, Bos taurus; settings: cattle
CC50 at 72 h values for the compounds below.
# unit: µg/mL | format: bare number

Sample records with CC50 at 72 h:
Q) Endpoint output: CC50 at 72 h of `Fc1ccc(-c2nc3ccc(-c4ccccc4)nn3c2-c2cccc(-c3ccccc3)c2)cc1` . Value?
A) 25

Q) CC50 at 72 h for `COc1ccccc1-c1nc2ccccn2c1-c1cccc(-c2ccccc2O)c1` ?
A) 14.4

Here is the next item to consider.
Q) Which CC50 at 72 h is reported for this compound? `COc1ccccc1-c1cccc(-c2c(-c3ccc(F)cc3)nc3ccccn23)c1`
A) 8.5
